Each item that follows carries a reported gamma-GTP.
Species on record: Rattus norvegicus
EXPERIMENTAL DETAILS: Open TG-GATES - Regimen: Single
Format: toxicity, organism-based, Sprague-Dawley
Parameters: regimen Single, gender Male, age 6 weeks
MEASUREMENT PARAMETERS: in vivo, po, 0 mg/kg, 9 h, tissue Plasma, route gavage, dose level Control
EXPERIMENTAL READOUT: gamma-GTP (IU/L)

Nc1ccc(Cc2ccc(N)cc2)cc1
1
CCO [ALCOHOL]
2
CN(C)CCCN1c2ccccc2Sc2ccc(Cl)cc21 [CHLORPROMAZINE]
1
O=C(O)c1ccccc1Nc1ccccc1 [FENAMIC ACID]
1.2
CC(S)C(=O)NCC(=O)O (stereo unspecified) [TIOPRONIN]
1.4
COc1ccc([C@@H]2Sc3ccccc3N(CCN(C)C)C(=O)[C@@H]2OC(C)=O)cc1 [DILTIAZEM]
1.8

----------
Each item that follows carries a reported K.
Organism: Rattus norvegicus
EXPERIMENTAL DETAILS: Open TG-GATES - Regimen: Daily Repeat
Format: toxicity, organism-based, Sprague-Dawley
Set-up: regimen Daily Repeat, gender Male, age 6 weeks
MEASUREMENT PARAMETERS: in vivo, po, 1000 mg/kg, […], tissue Plasma, route gavage, dose level High, time 14 day
EXPERIMENTAL READOUT: K (meq/L)

O=C(O)c1ccccc1Nc1ccccc1 [FENAMIC ACID]
5.2
CCCCNC(=O)NS(=O)(=O)c1ccc(C)cc1 [TOLBUTAMIDE]
3.8
CC(=O)[C@@]1(O)CC[C@H]2[C@@H]3C=C(Cl)C4=CC(=O)CC[C@]4(C)[C@H]3CC[C@@]21C [CHLORMADINONE]
4.4
CC(S)C(=O)NCC(=O)O (centres undefined) [TIOPRONIN]
4.4

----------
Species: Rattus norvegicus
EXPERIMENTAL DETAILS: Open TG-GATES - Regimen: Daily Repeat
Format: toxicity, organism-based, Sprague-Dawley
Set-up: regimen Daily Repeat, gender Male, age 6 weeks
MEASUREMENT PARAMETERS: in vivo, po, 300 mg/kg, […], tissue Plasma, route gavage, dose level Middle, time 14 day
EXPERIMENTAL READOUT: TG (mg/dL)

CC(=O)[C@@]1(O)CC[C@H]2[C@@H]3C=C(Cl)C4=CC(=O)CC[C@]4(C)[C@H]3CC[C@@]21C
173
CCCCNC(=O)NS(=O)(=O)c1ccc(C)cc1 [TOLBUTAMIDE]
127.2
O=C(O)c1ccccc1Nc1ccccc1
117.2
CC(S)C(=O)NCC(=O)O (centres undefined)
155

----------
Organism: Rattus norvegicus
EXPERIMENTAL DETAILS: Open TG-GATES - Regimen: Daily Repeat
Format: toxicity, organism-based, Sprague-Dawley
Set-up: regimen Daily Repeat, gender Male, age 6 weeks
MEASUREMENT PARAMETERS: in vivo, po, 0 mg/kg, […], tissue Blood, route gavage, dose level Control, time 14 day
Each item that follows carries a reported Plat.
EXPERIMENTAL READOUT: Plat (x10_4/uL)

CC(S)C(=O)NCC(=O)O (configuration not stated)
118.7
CCCCNC(=O)NS(=O)(=O)c1ccc(C)cc1 [TOLBUTAMIDE]
124.7
CC(=O)[C@@]1(O)CC[C@H]2[C@@H]3C=C(Cl)C4=CC(=O)CC[C@]4(C)[C@H]3CC[C@@]21C
100.4
CCO
110
COc1ccc([C@@H]2Sc3ccccc3N(CCN(C)C)C(=O)[C@@H]2OC(C)=O)cc1
141.2
O=c1ccc2ccccc2o1
117.6
Nc1ccc(Cc2ccc(N)cc2)cc1
158.2
CN(C/C=C/C#CC(C)(C)C)Cc1cccc2ccccc12
109.6
O=C(O)c1ccccc1Nc1ccccc1
112.2
CCN(CC)C(=S)SSC(=S)N(CC)CC
112
NS(=O)(=O)c1cc(C(=O)O)c(NCc2ccco2)cc1Cl [FUROSEMIDE]
117.3
CN(CCOc1ccc(CC2SC(=O)NC2=O)cc1)c1ccccn1.O=C(O)/C=C\C(=O)O (configuration not stated) [ROSIGLITAZONE MALEATE]
126.2

Values from ChEMBL document CHEMBL3885861
